system: panel of 140 standard cancer cell lines; test: ProliFiler-140 cancer cell line screen (CellTiterGlo, 72 h); assay type: cell-based; conditions: read-out: IC50 [M] (ProliFiler-140); NCI-H838 (Lung)
measured endpoint: IC50 (M)
The answer is to be given in M; state only the numeric part.

Q: Look up IC50 with panel of 140 standard cancer cell lines for this compound: COc1cc2cc(C(=O)N3C[C@@H](CCl)c4c3cc(OC(=O)N3CCN(C(=O)CCC(=O)N5CCN(C)CC5)[C@H]5CSSC[C@H]53)c3ccccc43)[nH]c2c(OC)c1OC [P-SS66C-CBI-TMI]
Result: 7.44e-08
